Biological target: Zinc finger protein mex-5 (Caenorhabditis elegans)
Sequence (Q9XUB2 whole entry): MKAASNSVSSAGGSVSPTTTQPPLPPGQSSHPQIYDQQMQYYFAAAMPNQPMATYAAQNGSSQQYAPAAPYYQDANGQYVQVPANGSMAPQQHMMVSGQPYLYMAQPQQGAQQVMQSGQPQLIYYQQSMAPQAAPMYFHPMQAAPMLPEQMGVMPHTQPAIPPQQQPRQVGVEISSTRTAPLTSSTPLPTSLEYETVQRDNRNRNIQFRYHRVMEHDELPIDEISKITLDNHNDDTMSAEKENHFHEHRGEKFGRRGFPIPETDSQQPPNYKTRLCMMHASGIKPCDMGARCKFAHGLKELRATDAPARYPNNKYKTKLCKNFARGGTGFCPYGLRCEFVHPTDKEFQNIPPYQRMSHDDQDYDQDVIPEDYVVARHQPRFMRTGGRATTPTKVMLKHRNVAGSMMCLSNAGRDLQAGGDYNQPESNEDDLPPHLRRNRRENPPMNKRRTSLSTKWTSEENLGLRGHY
Assay: potency of MEX-5 RNA-binding blockers – biochemical, C. elegans, fluorescence polarization, dose response (AID 1960)
Active and inactive are the calls of the source.
Parameter measured: EC50

[
  {
    "Compound": "CCCCC1=CC2=CC(=O)C(C)(O)C(=O)C2=CO1 (stereo not drawn)",
    "Parameter measured": "EC50",
    "Result": "23.5 µM (active)"
  },
  {
    "Compound": "CC1=N/C(=C/c2ccco2)C(=O)O1",
    "Parameter measured": "EC50",
    "Result": "33.1 µM (active)"
  }
]

Now look at this entry.
Short answer please: EC50, Zinc finger protein mex-5 (Caenorhabditis elegans), entry CC(C)(C)C(=O)c1sc2nc(-c3cccs3)cc(C(F)(F)F)c2c1N
> 300 µM (inconclusive)

----------
Tested on: INS1
Test: INS-1E survival protection against cytokine death – cell-based, luminescence, retest, dose response (AID 449756);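 note: cell death triggered by IL-1 beta plus TNF-alpha plus IFN-gamma mixture; protective hits raise ATP signal compared with cytokine alone wells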
Format: functional
Conditions: Rattus norvegicus
Calls of active or inactive are those of the source.
Parameter measured: AC50

A selection of reference data follows.
[
  {
    "Compound": "O=C(Nc1nc(-c2ccccn2)cs1)c1ccccc1-n1cnnn1",
    "System tested": "INS1",
    "Parameter measured": "AC50",
    "Result": "1.3 µM (active)"
  },
  {
    "Compound": "Cn1nc(C(C)(C)C)cc1C(=O)NCc1ccc(N2CCCC2=O)cc1",
    "System tested": "INS1",
    "Parameter measured": "AC50",
    "Result": "2.85 µM (active)"
  },
  {
    "Compound": "CCCCCCCCCCOC(=O)C[n+]1c(COc2cccc(C)c2)n(C)c2ccccc21",
    "System tested": "INS1",
    "Parameter measured": "AC50",
    "Result": "3.87 µM (active)"
  },
  {
    "Compound": "Cc1cc(N/N=C/c2cccc(Cl)c2)nc(-n2nc(C)cc2C)n1",
    "System tested": "INS1",
    "Parameter measured": "AC50",
    "Result": "2.69 µM (active)"
  },
  {
    "Compound": "CC(=O)c1cn(CCOc2cc(C)ccc2C)c2ccccc12",
    "System tested": "INS1",
    "Parameter measured": "AC50",
    "Result": "3.62 µM (active)"
  },
  {
    "Compound": "COC(=O)C1CN(C#N)N(c2ccc(Cl)cc2)C12c1ccccc1-c1ccccc12 (stereo not drawn)",
    "System tested": "INS1",
    "Parameter measured": "AC50",
    "Result": "2.5 µM (active)"
  },
  {
    "Compound": "O=S(=O)(c1cc(F)ccc1F)N1CCN(c2ncnc3ccccc23)CC1",
    "System tested": "INS1",
    "Parameter measured": "AC50",
    "Result": "2.26 µM (active)"
  }
]

Now look at this entry.
Give the measured AC50 of Oc1nccc(N/N=C/c2ccccc2O)n1 .
0.625 µM (active)

----------
Molecular target: FAD-linked sulfhydryl oxidase ALR (Homo sapiens)
Sequence (P55789 whole entry): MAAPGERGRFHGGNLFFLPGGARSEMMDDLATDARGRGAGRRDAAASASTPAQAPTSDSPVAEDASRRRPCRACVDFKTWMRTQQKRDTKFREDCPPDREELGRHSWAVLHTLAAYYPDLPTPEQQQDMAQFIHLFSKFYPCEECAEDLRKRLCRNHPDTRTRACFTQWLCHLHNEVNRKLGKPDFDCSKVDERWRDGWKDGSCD
Experiment: ALR-catalysed DTT oxidation blockers – biochemical, H2O2 detection, luminescence, cherry-pick, dose response (AID 493248)
Activity calls are given as the source filed them.
// AC50 lookup, one value per entry

Give the measured AC50 of Oc1ccc(/C=C/c2cc(O)cc(O)c2)cc1 .
4.02 µM (active)
